test: chemical genetic growth profiling, strain panel (AID 1159580);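 further: tested at 20 µM; growth read once vehicle control cultures reached saturation at 30 °C; 1 = growth at the plate median or of vehicle wells; lower values mean less growth of the strain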; conditions: S. cerevisiae deletion strains, growth OD, locus YEL003W, strain gim4, active compounds read low
Screen size: about 5,500 compounds; about 2,000 (36%) were called active. Not shown: some 18% with an inconclusive outcome. This is one part of the list.
Overview of recorded normalized growth for various compounds
Format: numeric value only, no unit, no commentary.

[[record]]
compound = "NCCCC[C@H](N[C@@H](CCc1ccccc1)C(=O)O)C(=O)N1CCC[C@H]1C(=O)O"
result_value = 1.02

[[record]]
compound = "C=C(C)C1CC=C(CO)CC1 (configuration not stated)"
result_value = 0.976

[[record]]
compound = "OC[C@@H](O)[C@@H](O[C@@H]1O[C@H](CO)[C@@H](O)[C@H](O)[C@H]1O)[C@H](O)[C@@H](O)CO"
result_value = 0.989

[[record]]
compound = "C=C(C)[C@H]1CC=C(C(=O)O)CC1"
result_value = 0.943


Quick one: normalized growth of CCCC(C)C1(CC)C(=O)N=C(S)NC1=O (configuration not stated) ?
0.997

// next record CC(=O)/C(=C\c1ccccc1)CC(=O)O
0.992

// next record C=CCC1(C(C)CCC)C(=O)N=C(S)NC1=O (configuration not stated)
0.979

// next record CN/C(=C\[N+](=O)[O-])NCCSCc1ccc(CN(C)C)o1
0.992

// next record CO[C@H]1/C=C/O[C@@]2(C)Oc3c(C)c(O)c4c(O)c(c(/C=N/N5CCN(C)CC5)c(O)c4c3C2=O)NC(=O)/C(C)=C\C=C\C(C)[C@H](O)[C@@H](C)[C@@H](O)[C@@H](C)[C@@H](OC(C)=O)[C@@H]1C (some centres not stated)
0.995

// next record CCOP(=S)(OCC)SCn1c(=O)oc2cc(Cl)ccc21
0.961

// next record Cc1c(Nc2ncccc2C(=O)O)cccc1C(F)(F)F
0.974

// next record O=C(O)/C=C/C=C/c1ccccc1
0.836

// next record O[N+]1=CC=CCC1=S.On1ccccc1=S.[Zn]
0.0591

// next record COc1cccc(/C=C/C(=O)O)c1C(C)C
0.994

// next record CC(C)=CCC[C@](C)(O)C1CC=C(C)CC1 (some centres not stated)
0.983

// next record C=CC(C1=CC(=O)C(OC)=CC1=O)c1ccc(OC)cc1 (configuration not stated)
0.803

// next record CCC(Cc1c(I)cc(I)c(N)c1I)C(=O)O (configuration not stated)
0.934

// next record O=c1[nH]c(=O)n(C2C[C@@H](O)[C@@H](CO)O2)cc1F (some centres not stated)
0.989

// next record CC(C)=CCC/C(C)=C/CC/C(C)=C/CC/C(C)=C/CC/C(C)=C/CC/C(C)=C/CC/C(C)=C/CC/C(C)=C/CC/C(C)=C/CO
1

// next record CC1(C)CCCC2(C)C3C1[C@@H](O)C2(C)C[C@H]3O (some centres not stated)
1.03

// next record CCOC(=O)c1oc2c(OC)c(O)cc(O)c2c(=O)c1-c1cc(OC)c(OC)c(OC)c1
0.978

// next record Nc1ncnc2c1ncn2[C@@H]1O[C@H](CO)[C@@H](O)[C@H]1O
0.994

====

assay: chemical genetic growth profiling, strain panel (AID 1159580);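 further: tested at 20 µM; growth read once vehicle control cultures reached saturation at 30 °C; 1 = growth at the plate median or of vehicle wells; lower values mean less growth of the strain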; conditions: S. cerevisiae deletion strains, growth OD, locus YGL248W, strain PDE1, active compounds read low
Among all 5,500 compounds or so, about 2,000 (36%) were called active. Inconclusive results (about 18%) are left out. The list shows a part of the results.
Measured Metric: normalized growth
Format: numeric value only, no unit, no commentary.

Guide cases for normalized growth, answers given:
[[record]]
compound = "CCC[C@H]1CC2=C(C[C@@H](CC)CC3=C1C(=O)OC3=O)C(=O)OC2=O"
result_value = 1

[[record]]
compound = "NC(=NCCC[C@H](N)C(=O)O)NC(CCC(=O)O)C(=O)O (stereo partly specified)"
result_value = 0.999

[[record]]
compound = "c1ccc2c3c([nH]c2c1)CNCC3"
result_value = 0.994

[[record]]
compound = "O=C(CCCCCCCCCCCCC1CCCC1)Nc1ccc(S(=O)(=O)c2ccc(NC(=O)CCCCCCCCCCCCC3CCCC3)cc2)cc1"
result_value = 1.03

[[record]]
compound = "Cc1ccc(/C(=C\\CN2CCCC2)c2ccccn2)cc1"
result_value = 1


Quick one: normalized growth of C[C@H](N)[C@H](O)c1ccc(O)c(O)c1 ?
0.988
